Taken from PubChem BioAssay.

biological target: Voltage-gated potassium channel subunit beta-2 (Rattus norvegicus); assay: KvBeta positive modulators, primary screen, biochemical, NADPH fluorescence (AID 623); settings: Recombinant KvBeta, NADPH fluorescence decrease slope, 10 min; at 10 µM; stronger effect = lower value;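 further: fluorescence intensity change per second fitted from 20 to 320 s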
assay-readout: NADPH fluorescence slope
Give bare numbers.

Field: example entries. Status: answers known.
Cc1ccc2nc(NCc3ccccc3)[nH]c2c1 : -0.00018
COc1ccccc1C(=O)N1CCCC1(C#N)c1ccccc1 (centres undefined) : -0.000294

# batch size: 5; output NADPH fluorescence slope per entry
1. Cc1occc(=O)c1OC(=O)Nc1ccccc1
2. O=C1CCC(=O)N1CN(Cc1ccco1)CN1C(=O)CCC1=O
3. CC1Cc2ccccc2N1NC(=O)c1ccc(Cl)c(S(N)(=O)=O)c1 (centres undefined)
4. Cc1cc(=O)oc(C)c1C(=O)NCCN1CCOCC1
5. Cc1ccc(C2C(C(=O)c3cc4ccccc4o3)=C(O)C(=O)N2CCN(C)C)o1 (centres undefined)

["-2.3e-05", "-1.3e-05", "-5e-05", "-1.8e-05", "-2.4e-05"]

// for each compound below, give its NADPH fluorescence slope
1. CCCN(CCC)C(=O)C(CCC(=O)O)NC(=O)c1ccccc1 (centres undefined)
2. CN1CCN(CC(=O)N2c3ccccc3C(=O)Nc3cccnc32)CC1

1: -3.2e-05; 2: -3.8e-05
